Data provenance is ChEMBL document CHEMBL1157012.

Assay: Human intestinal absorption in po dosed human
Conditions: in vivo
measure-name: Fa (%)
Number only, in %; omit the unit.

[
  {
    "molecule": "Cc1cccc(C)c1NC(=O)NCCCNC(C)C",
    "assay-result": 71
  },
  {
    "molecule": "Nc1ncnc2c1ncn2CCOCP(=O)(O)O",
    "assay-result": 16
  },
  {
    "molecule": "CC1COc2c(N3CCN(C)CC3)c(F)cc3c(=O)c(C(=O)O)cn1c23 (stereo not given)",
    "assay-result": 100
  },
  {
    "molecule": "CCOc1ccccc1OCC1CNCCO1 (stereo not given)",
    "assay-result": 98
  }
]

For the next question, use this molecule.
Give recorded Fa. COc1cccc2c1C(=O)c1c(O)c3c(c(O)c1C2=O)C[C@@](O)(C(=O)CO)C[C@@H]3O[C@H]1C[C@H](N)[C@H](O)[C@H](C)O1
12

---

Reported Fa is given for each of the following molecules.
Test: Human intestinal absorption in po dosed human
Settings: in vivo

Some molecules with known Fa results, for comparison:
[
  {
    "molecule": "CO/N=C(\\C(=O)N[C@@H]1C(=O)N2C(C(=O)O)=CCS[C@H]12)c1csc(N)n1 [CEFTIZOXIME]",
    "assay-result": "72%"
  },
  {
    "molecule": "Cc1ccsc1C(=CCCN1CCC[C@@H](C(=O)O)C1)c1sccc1C [TIAGABINE]",
    "assay-result": "90%"
  }
]

Identify measured Fa corresponding to COC(=O)C1=C(C)NC(C)=C(C(=O)OCC(C)C)C1c1ccccc1[N+](=O)[O-] (stereo not drawn) [NISOLDIPINE]
89%

Identify measured Fa corresponding to COc1cc2nc(N3CCN(C(=O)c4ccco4)CC3)nc(N)c2cc1OC [PRAZOSIN]
86%

Hello, please tell me recorded Fa for this one: O=C1CN=C(c2ccccn2)c2cc(Br)ccc2N1 [BROMAZEPAM]
84%

Item C[C@H]1C[C@@H]2[C@H]([C@@H](O)C[C@@]3(C)[C@H]2CC[C@]3(O)C(=O)CO)[C@@]2(C)C=CC(=O)C=C12 [METHYLPREDNISOLONE] : provide Fa
82%

Look up and report measured Fa for this entry: NS(=O)(=O)c1cc2c(cc1Cl)NCNS2(=O)=O [HYDROCHLOROTHIAZIDE]
69%

---

Measured Fa accompanies every entry in the list below.
Assay: Human intestinal absorption in po dosed human
Conditions: in vivo
Use % as the unit, but write only the number.

Illustrative cases are given below, each with its answer.
[
  {
    "molecule": "N[C@@H](Cc1ccc(O)c(O)c1)C(=O)O",
    "readout-unit": "%",
    "Fa": 86
  },
  {
    "molecule": "N[C@@H](C(=O)N[C@@H]1C(=O)N2C(C(=O)O)=C(CSc3c[nH]nn3)CS[C@H]12)c1ccc(O)cc1",
    "readout-unit": "%",
    "Fa": 75
  },
  {
    "molecule": "NCC(=O)O",
    "readout-unit": "%",
    "Fa": 100
  },
  {
    "molecule": "CCN(CC)CCC1(c2ccccc2)CCC(=O)NC1=O (stereo not drawn) [PHENGLUTARIMIDE]",
    "readout-unit": "%",
    "Fa": 100
  },
  {
    "molecule": "O=C(c1ccccc1)c1ccc2n1CCC2C(=O)O (stereo not drawn)",
    "readout-unit": "%",
    "Fa": 90
  },
  {
    "molecule": "N=C(N)NCC1COc2ccccc2O1 (stereo not drawn)",
    "readout-unit": "%",
    "Fa": 50
  },
  {
    "molecule": "COc1cc(C)c([S+](C)[O-])cc1OC (stereo not drawn) [TOLMESOXIDE]",
    "readout-unit": "%",
    "Fa": 98
  },
  {
    "molecule": "CC(C(=O)O)c1ccc(C2CCCC(=NO)C2)cc1 (stereo not drawn)",
    "readout-unit": "%",
    "Fa": 98
  },
  {
    "molecule": "Nc1nnc(-c2cccc(Cl)c2Cl)c(N)n1",
    "readout-unit": "%",
    "Fa": 98
  },
  {
    "molecule": "Cc1cn([C@H]2C[C@H](N=[N+]=[N-])[C@@H](CO)O2)c(=O)[nH]c1=O",
    "readout-unit": "%",
    "Fa": 100
  }
]

Determine its reported Fa: COc1cccc(C2(O)CCCCC2CN(C)C)c1 (stereo not drawn)
90

Given the molecule O=c1[nH]c2ccccc2n1CCCN1CCN(C(c2ccccc2)c2ccccc2)CC1 [OXATOMIDE] , write its reported Fa.
100

Supply reported Fa belonging to this molecule: CN1C(C(=O)Nc2ccccn2)=C(O)c2sccc2S1(=O)=O
100

For COc1ccc(C(CN(C)C)C2(O)CCCCC2)cc1 (stereo not drawn) , write its Fa.
97

Please look at this molecule and report its Fa: C[C@H]1[C@H](NC(=O)/C(=N\OC(C)(C)C(=O)O)c2csc(N)n2)C(=O)N1S(=O)(=O)O
1
